# credit: PubChem BioAssay

Test: reversal of MRP1-mediated doxorubicin resistance, pilot screen, H69AR cells, doxorubicin co-treatment (AID 601)
Conditions: H69AR cells + 2 uM doxorubicin, CellTiter-Glo, 72 h; measured here: viability with 2 uM doxorubicin; at 10 µM; stronger effect = lower value
So I've got a bunch of compounds here, and I need their viability values.
Give the value in % but do not write % after it.

Any idea what viability was measured for CC(C)(CO)NC(=O)CCCOc1ccc(Cl)cc1Cl ?
79.2

Consider the compound shown here: CCNc1nc(OC)nc(Oc2ccc(=O)n(-c3ccccc3)n2)n1 What is its recorded viability?
85.8

Form field: reported viability of Cc1ccc(Cn2nnc3c(=O)n(CC(=O)NCC4CCCO4)cnc32)cc1 (stereo unspecified)
90.4

Reported viability for COc1ccccc1OCCSc1nc2ccccc2c(=O)[nH]1 : what is it?
80.1

Reported viability for CCN(CC)S(=O)(=O)c1ccc2oc(SCc3ccc(F)cc3)nc2c1 : what is it?
95

GET /values?readout=viability&item= COc1cccc(OCc2nc3c4cnn(-c5ccccc5)c4ncn3n2)c1
88.3
